# credit: patent US10844077B2

% change of MS signal compared to control sample reference
- Measurement Target: ZC2/TNIK (Homo sapiens (Human), UniProt Q9UKE5)
- Sequence (Q9UKE5 whole entry): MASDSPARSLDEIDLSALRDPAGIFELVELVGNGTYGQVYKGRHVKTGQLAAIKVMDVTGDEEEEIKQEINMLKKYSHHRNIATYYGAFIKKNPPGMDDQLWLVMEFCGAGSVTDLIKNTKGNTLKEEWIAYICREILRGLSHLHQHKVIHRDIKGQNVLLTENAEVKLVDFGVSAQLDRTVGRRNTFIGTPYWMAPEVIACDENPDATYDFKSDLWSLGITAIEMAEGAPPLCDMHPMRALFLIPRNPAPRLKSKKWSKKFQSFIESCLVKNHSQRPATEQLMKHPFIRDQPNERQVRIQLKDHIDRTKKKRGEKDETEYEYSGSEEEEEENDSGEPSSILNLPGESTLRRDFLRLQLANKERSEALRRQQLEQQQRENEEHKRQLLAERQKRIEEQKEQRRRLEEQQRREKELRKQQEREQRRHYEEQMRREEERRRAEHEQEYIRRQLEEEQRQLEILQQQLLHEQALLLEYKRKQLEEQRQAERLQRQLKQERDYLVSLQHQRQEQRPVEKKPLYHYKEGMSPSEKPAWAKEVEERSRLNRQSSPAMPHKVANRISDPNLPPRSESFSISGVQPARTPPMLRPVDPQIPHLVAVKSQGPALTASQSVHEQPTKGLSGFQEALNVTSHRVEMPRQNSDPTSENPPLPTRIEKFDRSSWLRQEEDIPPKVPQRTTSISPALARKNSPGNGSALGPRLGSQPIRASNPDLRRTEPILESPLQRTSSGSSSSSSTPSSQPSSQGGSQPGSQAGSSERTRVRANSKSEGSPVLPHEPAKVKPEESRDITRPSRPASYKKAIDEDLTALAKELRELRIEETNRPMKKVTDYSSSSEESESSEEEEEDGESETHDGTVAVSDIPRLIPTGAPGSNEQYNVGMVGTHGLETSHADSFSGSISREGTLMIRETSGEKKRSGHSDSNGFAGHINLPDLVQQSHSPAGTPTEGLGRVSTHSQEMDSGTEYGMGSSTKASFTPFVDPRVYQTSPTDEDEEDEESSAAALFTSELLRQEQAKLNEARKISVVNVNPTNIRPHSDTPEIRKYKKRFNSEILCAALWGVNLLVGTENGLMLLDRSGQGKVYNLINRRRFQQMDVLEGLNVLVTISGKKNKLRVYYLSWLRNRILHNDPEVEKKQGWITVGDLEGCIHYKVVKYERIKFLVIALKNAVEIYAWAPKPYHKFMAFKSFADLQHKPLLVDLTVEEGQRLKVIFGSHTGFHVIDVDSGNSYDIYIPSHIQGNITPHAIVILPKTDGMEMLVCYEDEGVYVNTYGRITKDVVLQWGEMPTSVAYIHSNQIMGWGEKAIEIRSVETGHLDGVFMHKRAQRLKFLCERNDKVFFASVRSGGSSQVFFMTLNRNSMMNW
- Protocol Summary: KINATIV assay
- Type: cell-based
- Assay Context: 1 μM, 90 minutes, BCWM.1 cells
Numeric only. Scale: %

INSERT INTO measurements (molecule, unit_descriptor, assay_value) VALUES
  ('C=CC(=O)N1CCCCC(Nc2nccc(Nc3ncc(C(=O)Nc4c(C)cccc4C)s3)n2)C1 (stereo not shown)', '%', '−1.5'),
  ('C=CC(=O)N1CCC(CNc2nccc(Nc3ncc(C(=O)Nc4c(C)cccc4C)s3)n2)C1 (racemic)', '%', 19.0),
  ('C=CC(=O)N1CC[C@@H](Nc2nccc(Nc3ncc(C(=O)Nc4c(C)cccc4C)s3)n2)C1', '%', 48.8);

Here is another molecule to look at.
Reported % change of MS signal compared to control sample for C=CC(=O)N1CCC(Cn2ccc(Nc3ncc(C(=O)Nc4c(C)cccc4Cl)s3)n2)C1 (stereo not shown) : what is it?
−10.0

* * *

// reported % change of MS signal compared to control sample per item
- Measurement Target: UniProtKB Q13555
- Sequence (Q13555 whole entry): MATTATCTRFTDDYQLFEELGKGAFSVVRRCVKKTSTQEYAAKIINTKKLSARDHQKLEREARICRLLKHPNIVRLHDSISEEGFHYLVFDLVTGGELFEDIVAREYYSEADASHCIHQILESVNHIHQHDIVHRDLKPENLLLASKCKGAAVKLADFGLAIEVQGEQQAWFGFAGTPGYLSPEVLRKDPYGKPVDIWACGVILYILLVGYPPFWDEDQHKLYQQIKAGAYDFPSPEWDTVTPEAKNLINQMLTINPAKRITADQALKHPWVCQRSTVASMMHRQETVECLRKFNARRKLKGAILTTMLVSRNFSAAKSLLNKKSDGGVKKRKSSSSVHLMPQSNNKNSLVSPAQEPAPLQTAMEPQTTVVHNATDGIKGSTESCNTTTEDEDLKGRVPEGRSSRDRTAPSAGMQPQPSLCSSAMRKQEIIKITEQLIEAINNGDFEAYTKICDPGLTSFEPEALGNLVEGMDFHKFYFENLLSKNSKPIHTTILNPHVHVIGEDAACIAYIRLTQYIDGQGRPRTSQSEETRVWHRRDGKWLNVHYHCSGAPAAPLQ
- Protocol Summary: KINATIV assay
- Type: cell-based
- Assay Context: 1 μM, 90 minutes, BCWM.1 cells
Numbers only here, please. The scale is %.

INSERT INTO results (compound, unit_descriptor, assay_value) VALUES
  ('C=CC(=O)N1CCC(CNc2nccc(Nc3ncc(C(=O)Nc4c(C)cccc4C)s3)n2)C1 (racemic) [Example I-8]', '%', '−9.4'),
  ('C=CC(=O)N1CC[C@@H](Nc2nccc(Nc3ncc(C(=O)Nc4c(C)cccc4C)s3)n2)C1 [Example I-4]', '%', '−19.8'),
  ('C=CC(=O)N1CCCCC(Nc2nccc(Nc3ncc(C(=O)Nc4c(C)cccc4C)s3)n2)C1 (stereo not shown) [Example I-7]', '%', '−12.8');

Consider now this further compound.
Report % change of MS signal compared to control sample for C=CC(=O)N1CCC(Cn2ccc(Nc3ncc(C(=O)Nc4c(C)cccc4Cl)s3)n2)C1 (stereo not shown) [II-1] please.
−17.5

* * *

- Measurement Target: Erk5 (Homo sapiens (Human))
- Sequence (Q13164 whole entry): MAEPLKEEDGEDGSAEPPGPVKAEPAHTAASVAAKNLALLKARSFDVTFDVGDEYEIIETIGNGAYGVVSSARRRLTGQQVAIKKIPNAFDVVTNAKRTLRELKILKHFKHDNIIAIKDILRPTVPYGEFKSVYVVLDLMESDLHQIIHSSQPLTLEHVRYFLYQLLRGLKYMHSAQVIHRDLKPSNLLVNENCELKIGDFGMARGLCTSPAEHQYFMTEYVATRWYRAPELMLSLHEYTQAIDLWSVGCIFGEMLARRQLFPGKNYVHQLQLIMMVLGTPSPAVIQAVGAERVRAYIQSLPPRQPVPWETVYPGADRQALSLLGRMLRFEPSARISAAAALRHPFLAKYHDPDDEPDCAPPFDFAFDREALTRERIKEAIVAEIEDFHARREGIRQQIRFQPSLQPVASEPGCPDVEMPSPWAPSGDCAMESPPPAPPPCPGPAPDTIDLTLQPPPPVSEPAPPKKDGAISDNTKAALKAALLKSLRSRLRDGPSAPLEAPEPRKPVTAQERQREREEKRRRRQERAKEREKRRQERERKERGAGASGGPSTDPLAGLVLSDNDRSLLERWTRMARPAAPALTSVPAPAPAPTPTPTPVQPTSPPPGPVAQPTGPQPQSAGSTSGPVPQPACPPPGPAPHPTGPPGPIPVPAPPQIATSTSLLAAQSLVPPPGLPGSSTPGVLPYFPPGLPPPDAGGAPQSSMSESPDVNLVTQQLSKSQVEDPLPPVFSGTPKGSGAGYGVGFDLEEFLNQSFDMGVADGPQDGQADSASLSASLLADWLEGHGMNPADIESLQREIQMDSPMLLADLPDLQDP
- Protocol Summary: KINATIV assay
- Type: cell-based
- Assay Context: 1 μM, 90 minutes, BCWM.1 cells
# key: entry, value: % change of MS signal compared to control sample
Reply with just the number (in %).

Example entries and their recorded answers appear below.
INSERT INTO assay_data (molecule, assay_value) VALUES
  ('C=CC(=O)N1CCC(Cn2ccc(Nc3ncc(C(=O)Nc4c(C)cccc4Cl)s3)n2)C1 (stereo not shown)', '−14.2'),
  ('C=CC(=O)N1CCC(CNc2nccc(Nc3ncc(C(=O)Nc4c(C)cccc4C)s3)n2)C1 (racemic)', '−11.4'),
  ('C=CC(=O)N1CCCCC(Nc2nccc(Nc3ncc(C(=O)Nc4c(C)cccc4C)s3)n2)C1 (stereo not shown)', '−13.8');

# context switch: different molecule, same % change of MS signal compared to control sample
Reported % change of MS signal compared to control sample for C=CC(=O)N1CC[C@@H](Nc2nccc(Nc3ncc(C(=O)Nc4c(C)cccc4C)s3)n2)C1 : what is it?
−9.0

* * *

- Measurement Target: p70S6Kb (Homo sapiens (Human))
- Sequence (Q9UBS0 whole entry): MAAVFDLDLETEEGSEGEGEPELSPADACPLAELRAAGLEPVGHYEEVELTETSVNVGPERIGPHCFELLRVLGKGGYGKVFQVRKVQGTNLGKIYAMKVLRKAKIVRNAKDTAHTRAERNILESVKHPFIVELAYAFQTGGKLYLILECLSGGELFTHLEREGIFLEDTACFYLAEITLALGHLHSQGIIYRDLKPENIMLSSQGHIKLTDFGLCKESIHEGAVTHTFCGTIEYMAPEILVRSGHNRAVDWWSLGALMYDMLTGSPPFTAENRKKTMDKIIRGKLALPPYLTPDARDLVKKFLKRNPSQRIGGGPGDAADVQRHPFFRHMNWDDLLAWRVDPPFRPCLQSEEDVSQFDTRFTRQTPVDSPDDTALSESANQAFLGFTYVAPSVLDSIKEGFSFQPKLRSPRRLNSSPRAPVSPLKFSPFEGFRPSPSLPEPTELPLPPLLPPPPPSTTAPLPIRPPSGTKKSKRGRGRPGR
- Protocol Summary: KINATIV assay
- Type: cell-based
- Assay Context: 1 μM, 90 minutes, BCWM.1 cells
Documented % change of MS signal compared to control sample across a set of molecules
Return type: number; implicit unit %.

Below, 2 molecules whose answers are already recorded.
INSERT INTO results (molecule, unit_descriptor, assay_value) VALUES
  ('C=CC(=O)N1CC[C@@H](Nc2nccc(Nc3ncc(C(=O)Nc4c(C)cccc4C)s3)n2)C1', '%', '−72.4'),
  ('C=CC(=O)N1CCC(Cn2ccc(Nc3ncc(C(=O)Nc4c(C)cccc4Cl)s3)n2)C1 (stereo not shown)', '%', '−57.1');

I am curious: what % change of MS signal compared to control sample value has been reported for C=CC(=O)N1CCCCC(Nc2nccc(Nc3ncc(C(=O)Nc4c(C)cccc4C)s3)n2)C1 (stereo not shown) ?
−42.7

And what about the molecule C=CC(=O)N1CCC(CNc2nccc(Nc3ncc(C(=O)Nc4c(C)cccc4C)s3)n2)C1 (racemic) ?
−22.7
